These measurements were taken from patent US20240050574A1.

TEST_PROTOCOL: LNP size and polydispersity index by Dynamic Light Scattering (Malvern Zetasizer)
Assay type: physicochemical
EXPERIMENTAL_CONTEXT: Table 3; LNP ionizable lipid/phospholipid/cholesterol/DMG-PEG2000 about 50/10/38.5/1.5; DOPE, except MC-3 with DSPC; eGFP mRNA; in nm (unit assumed)
METRIC_NAME: size

CCCCCCCC/C=C\CCCCCCCC(=O)OCC(CNC(=O)OCCSSCCOC(=O)NCCN(C)C)OC(=O)CCCCCCC/C=C\CCCCCCCC (stereo not drawn)    68.08
CCCCCCCC/C=C\CCCCCCCC(=O)OCC(CNC(=O)OCCOCCOC(=O)NCCN(C)C)OC(=O)CCCCCCC/C=C\CCCCCCCC (stereo not drawn)    59.56
CCCCCCCC/C=C\CCCCCCCC(=O)OCC(CNC(=O)OCCOC(C)(C)OCCOC(=O)NCCN(C)C)OC(=O)CCCCCCC/C=C\CCCCCCCC (stereo not drawn)    91.9
CCCCCCCC/C=C\CCCCCCCC(=O)OCC(CNC(=O)OCCOCCOC(=O)NCCCN1CCCCC1CC)OC(=O)CCCCCCC/C=C\CCCCCCCC (stereo not drawn)    67.3

P. CCCCCCCC/C=C\CCCCCCCC(=O)OCC(CNC(=O)OCCOC(C)(C)OCCOC(=O)NCCN1CCCCCC1)OC(=O)CCCCCCC/C=C\CCCCCCCC (stereo not drawn)
Q. CCCCCCCCCCCCCCCCCCN(CCCCCCCCCCCCCCCCCC)C(=O)OCCSSCCOC(=O)NCCN1CCCCCC1
I need your help: which of the pair P , Q has higher size? Answer with the label corresponding to your selection.
Q

###

TEST_PROTOCOL: LNP size and polydispersity index by Dynamic Light Scattering (Malvern Zetasizer)
Assay type: physicochemical
EXPERIMENTAL_CONTEXT: Table 2; LNP ionizable lipid/DOPE/cholesterol/DMG-PEG2000 about 50/10/38.5/1.5; eGFP mRNA, mRNA/ionizable lipid molar ratio 1/10; in nm (unit assumed)
METRIC_NAME: size

Observe how each entry below is paired with its result.
CCCCCCCCCCCCCCCCCCN(CCCCCCCCCCCCCCCCCC)C(=O)OCCSSCCOC(=O)NCCN(C)C [S-Adm-Dsa]    82.11
CCCCCCCCCCCCN(CCCCCCCCCCCC)C(=O)OCCSSCCOC(=O)NCCN1CCCCCC1 [S-Ac7-Dda]    74.28

a. CCCCCCCCCCCCN(CCCCCCCCCCCC)C(=O)OCCSSCCOC(=O)NCCN(C)C [S-Adm-Dda]
b. CCCCCCCCCCCCCCCCCCN(CCCCCCCCCCCCCCCCCC)C(=O)OCCSSCCOC(=O)NCCN(C(C)C)C(C)C [S-Adip-Dsa]
I need your help: which of the pair a , b has higher size? Answer with the label corresponding to your selection.
a

###

TEST_PROTOCOL: LNP size and polydispersity index by Dynamic Light Scattering (Malvern Zetasizer)
Format: physicochemical
EXPERIMENTAL_CONTEXT: Table 2; LNP ionizable lipid/DOPE/cholesterol/DMG-PEG2000 about 50/10/38.5/1.5; eGFP mRNA, mRNA/ionizable lipid molar ratio 1/10; in nm (unit assumed)
METRIC_NAME: size

CCCCCCCCCCCCN(CCCCCCCCCCCC)C(=O)OCCOC(C)(C)OCCOC(=O)NCCN(C(C)C)C(C)C [K-Adip-Dda]    78.59
CCCCC/C=C\C/C=C\CCCCCCCCC(CCCCCCCC/C=C\C/C=C\CCCCC)OC(=O)CCCN(C)C [MC3, reference compound]    73.14
CCCCCCCCCCCCN(CCCCCCCCCCCC)C(=O)OCCOC(C)(C)OCCOC(=O)NCCN(C)C [K-Adm-Dda]    65.56
CCCCCCCCCCCCN(CCCCCCCCCCCC)C(=O)OCCSSCCOC(=O)NCCN(C(C)C)C(C)C [S-Adip-Dda]    86.95
CCCCCCCCCCCCCCCCCCN(CCCCCCCCCCCCCCCCCC)C(=O)OCCSSCCOC(=O)NCCN1CCCCCC1 [S-Ac7-Dsa]    71.05

###

TEST_PROTOCOL: mRNA encapsulation efficiency by Ribogreen RNA assay
Format: physicochemical
EXPERIMENTAL_CONTEXT: Table 2; LNP ionizable lipid/DOPE/cholesterol/DMG-PEG2000 about 50/10/38.5/1.5; eGFP mRNA
METRIC_NAME: % encap (%)

CCCCCCCCCCCCCCCCCCN(CCCCCCCCCCCCCCCCCC)C(=O)OCCSSCCOC(=O)NCCN(C(C)C)C(C)C    101
CCCCCCCCCCCCCCCCCCN(CCCCCCCCCCCCCCCCCC)C(=O)OCCSSCCOC(=O)NCCN1CCCCCC1    99
CCCCCCCCCCCCN(CCCCCCCCCCCC)C(=O)OCCSSCCOC(=O)NCCN(C(C)C)C(C)C    98
CCCCCCCCCCCCCCCCCCN(CCCCCCCCCCCCCCCCCC)C(=O)OCCSSCCOC(=O)NCCN(C)C    98
CCCCCCCCCCCCN(CCCCCCCCCCCC)C(=O)OCCSSCCOC(=O)NCCN1CCCCCC1    95
CCCCCCCCCCCCN(CCCCCCCCCCCC)C(=O)OCCOC(C)(C)OCCOC(=O)NCCN(C(C)C)C(C)C    97
CCCCCCCCCCCCN(CCCCCCCCCCCC)C(=O)OCCSSCCOC(=O)NCCN(C)C    100
CCCCCCCCCCCCN(CCCCCCCCCCCC)C(=O)OCCOC(C)(C)OCCOC(=O)NCCN(C)C    100
CCCCC/C=C\C/C=C\CCCCCCCCC(CCCCCCCC/C=C\C/C=C\CCCCC)OC(=O)CCCN(C)C [MC3, reference compound]    100

###

TEST_PROTOCOL: LNP size and polydispersity index by Dynamic Light Scattering (Malvern Zetasizer)
Assay type: physicochemical
EXPERIMENTAL_CONTEXT: Table 5; ionizable lipid/DSPC/Chol/DMG-PEG2000 50/10/38.5/1.5 mol %; E7 mRNA; N/P 10
METRIC_NAME: size (nm)

I. CCCCCCCC/C=C\CCCCCCCC(=O)OCC(CNC(=O)OCCSSCCOC(=O)NCCN1CCCCCC1)OC(=O)CCCCCCC/C=C\CCCCCCCC (stereo not shown)
II. CCCCCCCC/C=C\CCCCCCCC(=O)OCC(CNC(=O)OCCOC(C)(C)OCCOC(=O)NCCN1CCCCCC1)OC(=O)CCCCCCC/C=C\CCCCCCCC (stereo not shown)
I need your help: which of the pair I , II has higher size? Answer with the label corresponding to your selection.
II

I. CCCCC/C=C\C/C=C\CCCCCCCCC(CCCCCCCC/C=C\C/C=C\CCCCC)OC(=O)CCCN(C)C [MC3, reference compound]
II. CCCCCCCC/C=C\CCCCCCCC(=O)OCC(CNC(=O)OCCSSCCOC(=O)NCCCN1CCCCC1CC)OC(=O)CCCCCCC/C=C\CCCCCCCC (stereo not shown)
Would you mind telling me which has the lower recorded size between I and II ? Answer with the label corresponding to your selection.
I

###

TEST_PROTOCOL: LNP size and polydispersity index by Dynamic Light Scattering (Malvern Zetasizer)
Type: physicochemical
EXPERIMENTAL_CONTEXT: Table 6 (Example 4, HA mRNA); ionizable lipid/DSPC/Chol/DMG-PEG2000 50/10/38.5/1.5 mol %; N/P 10
METRIC_NAME: size (nm)

CCCCCCCC/C=C\CCCCCCCC(=O)OCC(CNC(=O)OCCSSCCOC(=O)NCCN1CCCCCC1)OC(=O)CCCCCCC/C=C\CCCCCCCC (stereo not shown)    93.62
CCCCCCCCC(CCCCCC)C(=O)OCCN(CCOC(=O)C(CCCCCC)CCCCCCCC)C(=O)OCCSSCCOC(=O)NCCN(C)C (stereo not shown)    79.075
CCCCCCCCC(CCCCCC)C(=O)OCCN(CCOC(=O)C(CCCCCC)CCCCCCCC)C(=O)OCCSSCCOC(=O)NCCN1CCN(C)CC1 (stereo not shown)    106.3
CCCCCCCCC(CCCCCC)C(=O)OCCN(CCOC(=O)C(CCCCCC)CCCCCCCC)C(=O)OCCSSCCOC(=O)NCCN1CCCCCC1 (stereo not shown)    105.1

###

TEST_PROTOCOL: mRNA encapsulation efficiency by Ribogreen RNA assay
Format: physicochemical
EXPERIMENTAL_CONTEXT: Table 5; ionizable lipid/DSPC/Chol/DMG-PEG2000 50/10/38.5/1.5 mol %; E7 mRNA; N/P 10
METRIC_NAME: E.E. (encapsulation efficiency) (%)

P. CCCCCCCC/C=C\CCCCCCCC(=O)OCC(CNC(=O)OCCOC(C)(C)OCCOC(=O)NCCN1CCCCCC1)OC(=O)CCCCCCC/C=C\CCCCCCCC (stereo not shown) [K-Ac7-DOg]
Q. CCCCC/C=C\C/C=C\CCCCCCCCC(CCCCCCCC/C=C\C/C=C\CCCCC)OC(=O)CCCN(C)C [MC3, reference compound]
Would you mind telling me which has the lower recorded E.E. (encapsulation efficiency) between P and Q ? Answer with the label corresponding to your selection.
P
(P: 49%, Q: 99%)
